Value source: patent US9827181B2

# Test system: hair follicles on the dorsal skin of female C57BL/6 mice
# TEST_SUMMARY: mouse model of hair regeneration (dorsal skin, refractory telogen phase)
# TEST_SETTINGS: high dosage level (2000 μM) on dorsal skin, once a day for 10 days, negative = no hair growth
Reported Number x (hair regeneration observed at the x'th day) values for a set of substances
PARAMETER_MEASURED: Number x (hair regeneration observed at the x'th day) (days)

>>> number("GSTHVLITHTI (a designed peptide according to experiment) [P30]")
22
>>> number("PSTHVLITH (a designed peptide according to experiment) [P11]")
19
>>> number("PSTHVLLTHTI (a designed peptide according to experiments) [P41]")
19
>>> number("PSTHVLITGSG (a designed peptide according to experiment) [P25]")
22

====

# Tested on: hair follicles on the dorsal skin of female C57BL/6 mice
# TEST_SUMMARY: mouse model of hair regeneration (dorsal skin, refractory telogen phase)
# TEST_SETTINGS: high dosage level (2000 μM) on dorsal skin, once a day for 10 days, negative = no hair growth
PARAMETER_MEASURED: Number x (hair regeneration observed at the x'th day)

>>> result("PSTHVLITHTIS (a designed peptide according to experiment) [P29]")
"22 days"
>>> result("FGSFGSITHTI (a designed peptide according to experiment) [P40]")
"negative"
>>> result("PSTHVLGSFGS [P18]")
"22 days"
>>> result("PSTHVLITHTISR (a designed peptide according to experiment) [P28]")
"negative"
>>> result("FGTHVLITHTI (a designed peptide according to experiment) [P36]")
"15 days"

====

Reported Number x (hair regeneration observed at the x'th day) values for a set of substances
# System: hair follicles on the dorsal skin of female C57BL/6 mice
# TEST_SUMMARY: mouse model of hair regeneration (dorsal skin, refractory telogen phase)
# TEST_SETTINGS: high dosage level (2000 μM) on dorsal skin, once a day for 10 days, negative = no hair growth
PARAMETER_MEASURED: Number x (hair regeneration observed at the x'th day) (days)

>>> number("PSTHVLITHTI (a designed peptide according to experiments) [P1]")
17
>>> number("LITHTI (a designed peptide according to experiment) [P17]")
22
>>> number("PSTHVLITHGS (a designed peptide according to experiment) [P21]")
23

====

# System: hair follicles on the dorsal skin of female C57BL/6 mice
# TEST_SUMMARY: mouse model of hair regeneration (dorsal skin, refractory telogen phase)
# TEST_SETTINGS: high dosage level (2000 μM) on dorsal skin, once a day for 10 days, negative = no hair growth
PARAMETER_MEASURED: Number x (hair regeneration observed at the x'th day)

>>> result("GSFGFLITHTI (a designed peptide according to experiment) [P33]")
"negative"
>>> result("GSFHVLITHTI (a designed peptide according to experiment) [P31]")
"negative"
>>> result("PSTHVLITHTG (a designed peptide according to experiment) [P22]")
"23 days"
>>> result("PSTHVLIT (a designed peptide according to experiment) [P10]")
"negative"
>>> result("PSTHVLITHTS (a designed peptide according to experiment) [P27]")
"negative"
>>> result("PSTHVL (a designed peptide according to experiment) [P8]")
"15 days"
>>> result("VLITHTI (a designed peptide according to experiment) [P16]")
"negative"
>>> result("PSTHVLITHTISRI (a designed peptide according to experiment) [P6]")
"19 days"

====

# System: hair follicles on the dorsal skin of female C57BL/6 mice
# TEST_SUMMARY: mouse model of hair regeneration (dorsal skin, refractory telogen phase);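 note: mice roughly 8 weeks old, negative control skin section treated with 100% alcohol, regrowth checked daily with day counted from start of dosing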
# TEST_SETTINGS: high dosage level (2000 μM) on dorsal skin, once a day for 10 days, negative = no hair growth
PARAMETER_MEASURED: Number x (hair regeneration observed at the x'th day)

>>> result("PSTHVLIGSFG (a designed peptide according to experiment) [P19]")
"negative"
>>> result("FGSHVLITHTI (a designed peptide according to experiment) [P37]")
"negative"
>>> result("FSTHVLITHTI (a designed peptide according to experiment) [P35]")
"15 days"
>>> result("GSFGSFITHTI (a designed peptide according to experiment) [P34]")
"negative"
>>> result("HVLITHTI (a designed peptide according to experiment) [P15]")
"negative"
>>> result("PSTHVLITGSF (a designed peptide according to experiment) [P20]")
"negative"
>>> result("PSTHVLITHT (a designed peptide according to experiment) [P12]")
"19 days"
>>> result("PSTHVLITHSG (a designed peptide according to experiment) [P26]")
"22 days"
>>> result("FGSFVLITHTI (a designed peptide according to experiment) [P38]")
"negative"
